Below is a list of entries, each paired with its recorded growth value.
- System: OVCAR-5 ovarian
- test-summary: NCI-60 one-dose screen, 48 h (100 = growth as untreated, 0 = no growth, -100 = all killed)
- setup-conditions: 10 µM unless noted
This is part of a sample that, as a whole, favours compounds with a hit. Of some 83,000 tested, about 20% had one in any assay.
Field: numeric (%). Do not append units.

| molecule | unit-of-measure | growth |
| --- | --- | --- |
| CC(=O)c1cc2c(N)c(C(=O)Nc3ccccn3)sc2nc1C | % | 89.4 |
| O=C(CCl)N1CCCc2ccccc21 | % | 99.2 |
| O=C1C(Cl)=C(NCCCN(CCCNC2=C(Cl)C(=O)c3ccccc3C2=O)C2=C(Cl)C(=O)c3ccccc3C2=O)C(=O)c2ccccc21 | % | 121 |
| O=c1c2ccccc2oc2ccc(OCCCCCCN3CCCCCC3)cc12 | % | 58.9 |
| COc1cc(C(C)c2ccc3c(ccn3C)c2)cc(OC)c1OC (stereo not drawn) | % | 63.1 |

Query: // query growth value for entry O=C1CCC23OC(c4ccccc4N12)C(O)C(O)C3O (stereo not drawn)
Response: 110

Query: // query growth value for entry `S=c1ssnc1-c1cc2ccccc2o1`
Response: 105

Query: // query growth value for entry `O=C1NC(SCc2ccc(F)cc2)=N/C1=C/c1cccc(OCc2ccc(Cl)cc2)c1`
Response: 66.1

Query: // query growth value for entry `COc1ccc(Cl)c([N+](=O)[O-])c1`
Response: 102

Query: // query growth value for entry `Nc1c(C(=O)c2ccccc2)sc2nc(-c3cc4ccccc4o3)cc(-c3ccc(Cl)cc3)c12`
Response: 107

Query: // query growth value for entry O=C1NN(c2ccccc2)C(c2ccc(Cl)cc2)N2CCC[C@H]12 (stereo partly drawn)
Response: 103

---

Below is a list of entries, each paired with its recorded growth value.
- System: HCC-2998 colon
- test-summary: NCI-60 one-dose screen, 48 h (100 = growth as untreated, 0 = no growth, -100 = all killed)
- setup-conditions: 10 µM unless noted
The panel holds about 83,000 compounds, 20% with a hit somewhere; the sample as a whole holds those more often.
Field: numeric (%). Do not append units.

| compound | recorded-number |
| --- | --- |
| Cc1c(Br)cccc1NC(=O)c1sc2nc3c(cc2c1N)CN(Cc1ccccc1)CC3 | 41.1 |
| CCN1CCN(c2ccc(NC(=O)Nc3nc4ccc(-c5ccccc5OC)cc4s3)cc2)CC1 | -88.1 |
| CSc1nc(-c2ccco2)c2c(N)[nH]nc2n1 | 111 |
| O=C(CCc1nnco1)c1nc2ccc([N+](=O)[O-])cc2[nH]1 | 93.4 |
| COC(=O)c1ccc2c(c1)n(Cc1ccc3ccccc3c1)c[n+]2Cc1ccc2ccccc2c1 | 33.9 |
| N#CC(C#N)=C1NC(c2ccccc2)=C(c2ccccc2)C(c2ccccc2Cl)=C1C#N | 99.5 |
| Nc1c(C(=O)Nc2cccc3ccccc23)sc2nc3c(cc12)COCC3 | 85.5 |
| N#Cc1c(-c2ccc(F)cc2)nc(N/N=C/c2cccc(O)c2)nc1N1CCOCC1 | 95.1 |
| C=C1C(=O)O[C@H]2[C@H]1CC/C(COC(=O)c1c[nH]c3ccccc13)=C\CC[C@@]1(C)O[C@@H]21 | -80.9 |
| COc1ccc2c(c1)Oc1nc(N)c(C#N)c(N)c1C2Sc1ccc(O)cc1 (centres undefined) | 98.5 |

Query: // query growth value for entry `c1ccc(-c2n(Cc3ccc4ccccc4n3)cc[n+]2Cc2ccc3ccccc3c2)cc1`
Response: -13.2

Query: // query growth value for entry `COc1ccccc1C(=O)/C=C/c1cc2cccc(OC)c2[nH]c1=O`
Response: -84.7

Query: // query growth value for entry `COc1ccc2[nH]c(=O)c(/C=C/C(=O)c3ccccc3OC)cc2c1`
Response: 23.1

Query: // query growth value for entry `COc1cccc(NC(=O)Nc2ccc(Oc3ncnc4[nH]c(C)c(C)c34)cc2)c1`
Response: 103
